Please respond with reported abundance fitness for every item in the list.
B1: Ankyrin-1, residues 1405 to 1484; numbered along this chain, P16157 (parent)
chain: MKMAVISEHLGLSWAELARELQFSVEDINRIRVENPNSLLEQSVALLNLWVIREGQNANMENLYTALQSIDRGEIVNMLE

# Variants of: B1
# test.name: abundance fitness (aPCA) (normalised: wild type 0, dead -1); higher = more abundant; growth selection in yeast, the domain comes from the species named
# condition.summary: Homo sapiens
Answers are plain numbers.

Look over these answered cases.
mutant.name	result.number
E74H	-0.082
G73L	-0.399
L63A	-0.79
W50S	-0.734

Report abundance fitness for every entry below.
1. S69D
2. N62V
3. S69P
4. F23L
5. N29F

Outgoing:
1: -0.06; 2: 0.071; 3: -0.467; 4: -0.443; 5: -0.376

For each of the variants below, note its abundance fitness.
1. A45V
2. L39T
3. N48Q
4. E54L
5. S38E
6. D27P
7. R53C

Outgoing:
1: -0.513; 2: 0.116; 3: -0.205; 4: -0.567; 5: -0.514; 6: -0.822; 7: -0.797

Please give abundance fitness for each item listed below.
1. R32K
2. V25L
3. L67V
4. L63N
5. Q56M
6. E26T

Outgoing:
-0.3
-0.073
-0.771
-0.806
-0.061
0.023
